The binders listed here are annotated with their Anti-CD28 Fab signal in the presence of CD28.
target: T1, anti-CD28 Fab (SEQ ID NOs: 202, 203); test: phage binding ELISA; Fab wells pre-incubated with CD28 antigen (competitor);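 further: clonal phage supernatants added to wells preincubated with CD28 antigen in blocking buffer versus blocking buffer alone, washed, bound phage read by HRP-conjugated anti-M13 antibody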
T1 construct: biotinylated and captured on neutravidin coated plates in the phage ELISA
T1 sequence (VH, as listed by the source, chain 1 of 2): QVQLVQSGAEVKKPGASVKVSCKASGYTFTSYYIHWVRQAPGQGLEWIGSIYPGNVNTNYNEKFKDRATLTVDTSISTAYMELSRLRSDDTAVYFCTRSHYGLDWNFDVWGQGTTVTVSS
T1 sequence (VL, as listed by the source, chain 2 of 2): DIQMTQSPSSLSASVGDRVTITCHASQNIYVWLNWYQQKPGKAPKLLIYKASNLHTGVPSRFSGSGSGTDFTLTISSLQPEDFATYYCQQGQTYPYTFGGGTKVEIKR
Form: value (number only, do not type unit).

IN: Value lookup for Anti-CD28 Fab signal in the presence of CD28; key = YCDGHLAMYMDKCL [Phage-337]
OUT: 0.08
